Target: CYP1A2 (Homo sapiens, UniProt P05177)
Construct: Pooled human microsomes and selective CYP probe substrates were used; from tissue; host or cells: pooled human liver microsomes
Sequence (P05177 1-516): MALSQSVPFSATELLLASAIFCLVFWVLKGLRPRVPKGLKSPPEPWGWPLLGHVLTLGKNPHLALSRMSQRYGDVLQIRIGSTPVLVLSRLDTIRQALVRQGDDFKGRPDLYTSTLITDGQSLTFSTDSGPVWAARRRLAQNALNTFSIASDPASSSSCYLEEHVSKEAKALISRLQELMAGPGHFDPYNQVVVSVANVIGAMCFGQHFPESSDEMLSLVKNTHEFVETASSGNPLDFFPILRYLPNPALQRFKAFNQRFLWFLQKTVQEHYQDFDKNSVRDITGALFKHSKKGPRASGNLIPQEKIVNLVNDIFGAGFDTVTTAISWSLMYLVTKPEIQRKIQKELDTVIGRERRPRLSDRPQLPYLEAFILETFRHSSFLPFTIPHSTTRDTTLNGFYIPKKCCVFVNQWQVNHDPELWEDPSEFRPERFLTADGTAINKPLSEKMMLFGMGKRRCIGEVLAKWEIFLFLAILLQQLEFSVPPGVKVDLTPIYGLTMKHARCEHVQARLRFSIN
Assay: Time-dependent inhibition of CYP1A2 in human liver microsomes
Format: in vitro ADME
Conditions: pooled human liver microsomes; CYP1A2, 25 μM, human liver microsomes, after 30 minutes incubation; read-out: % Activity NADPH T30

molecule: C[C@H]1CC[C@H](N2CC(=O)N(Cc3ccc(Cl)cc3)C3(CN(C(N)=O)C3)C2=O)CC1 [Compound 18]
studyTarget: CYP1A2 (Homo sapiens, UniProt P05177)
activity at 30 min, 25 µM: 99%
--
molecule: C[C@H]1CC[C@H](N2CC(=O)N(Cc3ccc(F)c(F)c3)C3(CN(C(N)=O)C3)C2=O)CC1 [Compound 5]
studyTarget: CYP1A2 (Homo sapiens, UniProt P05177)
activity at 30 min, 25 µM: 87%
--
molecule: CC(C)N1CC(=O)N(Cc2ccc(C(F)(F)F)cc2)C2(CN(c3cccnn3)C2)C1=O [Compound 13]
studyTarget: CYP1A2 (Homo sapiens, UniProt P05177)
activity at 30 min, 25 µM: 99%
--
molecule: C[C@H]1CC[C@H](N2CC(=O)N(Cc3ccc(F)c(Cl)c3)C3(CN(C(N)=O)C3)C2=O)CC1 [Compound 7]
studyTarget: CYP1A2 (Homo sapiens, UniProt P05177)
activity at 30 min, 25 µM: 95%
--
molecule: Cc1cc(CN2C(=O)CN([C@H]3CC[C@H](C)CC3)C(=O)C23CN(C(N)=O)C3)ccc1F [Compound 6]
studyTarget: CYP1A2 (Homo sapiens, UniProt P05177)
activity at 30 min, 25 µM: 85%
--
molecule: CC(C)N1CC(=O)N(Cc2ccc(Cl)c(F)c2)C2(CN(c3cccnn3)C2)C1=O [Compound 8]
studyTarget: CYP1A2 (Homo sapiens, UniProt P05177)
activity at 30 min, 25 µM: 96%

###

Biological target: CYP2B6 (Homo sapiens, UniProt P20813)
Construct: Pooled human microsomes and selective CYP probe substrates were used; from tissue; host or cells: pooled human liver microsomes
Sequence (P20813 whole entry): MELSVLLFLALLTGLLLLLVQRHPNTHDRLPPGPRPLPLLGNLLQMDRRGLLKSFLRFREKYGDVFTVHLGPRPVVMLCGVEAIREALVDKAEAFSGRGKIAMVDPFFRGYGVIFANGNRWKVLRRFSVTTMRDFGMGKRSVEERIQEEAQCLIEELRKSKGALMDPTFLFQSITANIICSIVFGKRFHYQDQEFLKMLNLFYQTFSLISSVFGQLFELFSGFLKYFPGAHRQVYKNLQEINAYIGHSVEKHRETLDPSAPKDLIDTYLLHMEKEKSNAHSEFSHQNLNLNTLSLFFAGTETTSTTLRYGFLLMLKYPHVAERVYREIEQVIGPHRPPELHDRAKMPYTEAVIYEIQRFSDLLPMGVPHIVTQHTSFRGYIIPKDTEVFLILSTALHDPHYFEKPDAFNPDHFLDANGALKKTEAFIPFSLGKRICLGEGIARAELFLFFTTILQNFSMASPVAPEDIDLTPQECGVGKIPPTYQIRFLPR
Experiment: Time-dependent inhibition of CYP2B6 in human liver microsomes
Assay type: in vitro ADME
Conditions: CYP2B6, 50 μM, fold change
quantityMeasured: (% Activity NADPH T0)/(% Activity NADPH T30)

compound: CC(C)N1CC(=O)N(Cc2ccc(Cl)c(F)c2)C2(CN(c3cccnn3)C2)C1=O [Compound 8]
studyTarget: CYP2B6 (Homo sapiens, UniProt P20813)
assayResult: 0.9
--
compound: CC(C)N1CC(=O)N(Cc2ccc(C(F)(F)F)cc2)C2(CN(c3cccnn3)C2)C1=O [Compound 13]
studyTarget: CYP2B6 (Homo sapiens, UniProt P20813)
assayResult: 1.1
--
compound: Cc1cc(CN2C(=O)CN([C@H]3CC[C@H](C)CC3)C(=O)C23CN(C(N)=O)C3)ccc1F [Compound 6]
studyTarget: CYP2B6 (Homo sapiens, UniProt P20813)
assayResult: 1.1
--
compound: C[C@H]1CC[C@H](N2CC(=O)N(Cc3ccc(F)c(F)c3)C3(CN(C=O)C3)C2=O)CC1 [Compound 4]
studyTarget: CYP2B6 (Homo sapiens, UniProt P20813)
assayResult: 1.0
--
compound: C[C@H]1CC[C@H](N2CC(=O)N(Cc3ccc(Cl)cc3)C3(CN(C(N)=O)C3)C2=O)CC1 [Compound 18]
studyTarget: CYP2B6 (Homo sapiens, UniProt P20813)
assayResult: 0.9
--
compound: C[C@H]1CC[C@H](N2CC(=O)N(Cc3ccc(F)c(F)c3)C3(CN(C(N)=O)C3)C2=O)CC1 [Compound 5]
studyTarget: CYP2B6 (Homo sapiens, UniProt P20813)
assayResult: 1.1
--
compound: C[C@H]1CC[C@H](N2CC(=O)N(Cc3ccc(F)c(Cl)c3)C3(CN(C(N)=O)C3)C2=O)CC1 [Compound 7]
studyTarget: CYP2B6 (Homo sapiens, UniProt P20813)
assayResult: 1.1

Where do these numbers come from? They come from patent US12286437B2.
